- test protocol: Inhibitory activity against sodium-dependent synaptosome uptake was determined
- Assay type: functional, tissue-based, Brain
test readout: pKi
The quantity pKi is defined as the negative base-10 logarithm of the molar concentration.

Answer with reported pKi of `[N-]=[N+]=Nc1ccc(/C(N)=N/CCCC(=O)O)cc1`
5.10

====

- measured target: GABA-A receptor; anion channel
- test protocol: Binding affinity, determined by its ability to displace the [3H]GABA from Gamma-aminobutyric acid A (GABA-A) receptor site of rat brain membranes
test readout: Ki (µM)
Field format: number, assumed µM, no unit text.

Answer with reported Ki of CC12CC(=O)C3C(CCC4CC(O)CCC43C)C1CC(=N)N2 (configuration not stated)
0.047

Answer with reported Ki of `Cc1cc(-c2ccccc2)n[n+](CCCCCC(=O)O)c1N`
12.7

Answer with reported Ki of `Nc1ccc(-c2ccc(Cl)cc2Cl)n[n+]1CCCC(=O)O`
0.56

Answer with reported Ki of `Cc1cc(-c2ccccc2)n[n+](CCCCC(=O)O)c1N`
10

Answer with reported Ki of NC1C(c2ccccc2)=CC(c2ccccc2)=NN1CCCC(=O)O (configuration not stated)
100

Answer with reported Ki of `CC(C)(C)C(=O)ONCCCC(=O)O`
100

Answer with reported Ki of `Nc1ccc(C2CCCCC2)n[n+]1CCCC(=O)O`
3.74

Answer with reported Ki of `Nc1cc(-c2ccccc2)cn[n+]1CCCC(=O)O`
100

Answer with reported Ki of `N#CCCC[n+]1nc(-c2ccccc2)cc(-c2ccccc2)c1N`
91

Answer with reported Ki of `Cc1cc(N)[n+](CCCC(=O)O)nc1-c1ccccc1`
10.4

====

- measured target: GABA-A receptor; anion channel
- test protocol: Binding affinity, determined by its ability to displace the [3H]GABA from Gamma-aminobutyric acid A (GABA-A) receptor site of rat brain membranes
Provide the recorded pKi for the entries that follow.
The quantity pKi is defined as the negative base-10 logarithm of the molar concentration.

Lab note: GABA-A receptor; anion channel assay, enter pKi for `Cc1cc(-c2ccccc2)n[n+](CCCC(N)=O)c1N` here
4.04

Lab note: GABA-A receptor; anion channel assay, enter pKi for `Nc1ccc(Cl)n[n+]1CCCC(=O)O` here
4.04

Lab note: GABA-A receptor; anion channel assay, enter pKi for `Cc1n[n+](CCCC(=O)O)c(N)cc1-c1ccccc1` here
4.97

Lab note: GABA-A receptor; anion channel assay, enter pKi for `C[N+]1(C)CCc2cc3c(cc2[C@H]1[C@@H]1OC(=O)c2c1ccc1c2OCO1)OCO3` here
4.42

Lab note: GABA-A receptor; anion channel assay, enter pKi for NC1C=CC(c2ccccc2)=NN1CCCC(=O)O (stereo not given) here
5.91

====

- measured target: GABA-A receptor; anion channel
- test protocol: Binding affinity, determined by its ability to displace the [3H]GABA from Gamma-aminobutyric acid A (GABA-A) receptor site of rat brain membranes
Provide the recorded pKi for the entries that follow.
The quantity pKi is defined as the negative base-10 logarithm of the molar concentration.

Answer with reported pKi of Cc1cc(-c2ccccc2)n[n+](CCC(C)C(=O)O)c1N (stereo unspecified)
5.15

Answer with reported pKi of Cc1cc(-c2ccccc2)n[n+](C(C)CCC(=O)O)c1N (stereo unspecified)
5.05

Answer with reported pKi of Cc1cc(-c2ccccc2)n[n+](CCCC(=O)O)c1N [FAMIRAPRINIUM CHLORIDE]
5.64

Answer with reported pKi of `Cc1ccc(-c2cc(C)c(N)[n+](CCCC(=O)O)n2)cc1`
6.26

Answer with reported pKi of `CC(C)Cc1ccc(N)[n+](CCCC(=O)O)n1`
4.65

Answer with reported pKi of `Nc1ccc(-c2cccs2)n[n+]1CCCC(=O)O`
6.24

Answer with reported pKi of `Nc1ccc(-c2ccc(Cl)cc2)n[n+]1CCCC(=O)O`
6.55

Answer with reported pKi of `Cc1cc(-c2cccc3ccccc23)n[n+](CCCC(=O)O)c1N`
5.58

Answer with reported pKi of `COc1ccc(-c2cc(C)c(N)[n+](CCCC(=O)O)n2)cc1`
6.51

Answer with reported pKi of `Nc1ccc(-c2ccc([N+](=O)[O-])cc2)n[n+]1CCCC(=O)O`
5.86

Answer with reported pKi of `Cc1cc(-c2ccc(O)cc2)n[n+](CCCC(=O)O)c1N`
6.37

Answer with reported pKi of `Cc1cc(-c2ccccc2)n[n+](CCC(=O)O)c1N`
5.15

Answer with reported pKi of `Cc1cc(-c2ccccc2Cl)n[n+](CCCC(=O)O)c1N`
5.67

Answer with reported pKi of `Cc1cc(-c2ccccc2)n[n+](CC(=O)O)c1N`
4.21

Answer with reported pKi of `Nc1ccc(-c2ccsc2)n[n+]1CCCC(=O)O`
5.63

Answer with reported pKi of `Nc1ccc(-c2ccccc2Cl)n[n+]1CCCC(=O)O`
5.86

Answer with reported pKi of `Cc1cc(-c2cccc(Cl)c2)n[n+](CCCC(=O)O)c1N`
6.35

Answer with reported pKi of `NC(=O)NCCCC(=O)O`
4.00

Answer with reported pKi of `Oc1onc2c1CCNCC2`
4.30

Answer with reported pKi of `Nc1ccc(-c2ccc(F)cc2)n[n+]1CCCC(=O)O`
5.90

Answer with reported pKi of `Cc1ccn[n+](CCCC(=O)O)c1N`
4.50

Answer with reported pKi of `Cc1cc(-c2ccccc2)n[n+](CCCC#N)c1N`
4.70

Answer with reported pKi of `Cc1cc(-c2ccc([N+](=O)[O-])cc2)n[n+](CCCC(=O)O)c1N`
4.64

Answer with reported pKi of `N#CCCC[n+]1nc(-c2ccccc2)ccc1N`
4.04
